# target or test system: T1, CD134 protein (His-tagged, Sino Biological Inc. 10481-H08H) (human, UniProt P43489 29-216)
# T1 construct: bought protein coated on ELISA plates; also called OX40; TNFRSF4; not shown: His tag
# T1 sequence (looked up): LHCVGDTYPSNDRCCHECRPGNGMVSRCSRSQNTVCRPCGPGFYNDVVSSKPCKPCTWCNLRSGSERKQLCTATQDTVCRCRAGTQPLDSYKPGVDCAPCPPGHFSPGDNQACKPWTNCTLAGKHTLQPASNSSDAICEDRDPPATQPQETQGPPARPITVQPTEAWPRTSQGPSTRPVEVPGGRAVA
# test summary: ELISA, coated His-tagged CD134; note: test concentration or dose not given here
endpoint label: ELISA [abs. corr.] (abs. corr.)
Write the value in abs. corr. as a bare number.

INSERT INTO assay_data (binder, assay_value) VALUES
  ('P018.S.11.A.B06 (antibody, V domains shown, V regions on human Ig constant parts; also called AB134_27) VH: QSVEESGGRLVTPGTPLTLTCTASGFSLINYNMGWVRQAPGEGLEWIGTILTDGTVYYSNWAKGQFTISKTSTTVDLEMTSPTNEDTATYFCARDYPSYIAFDLWGPGTLVTVSS VL: AQVLTQTASSVSAAVGGTVTINCQASQSVYNDDNLAWLQQKPGQPPKLLIYGASSLASGVPSRFSGSGSGTEFTLTISGVQSEDAAIYYCQGGGFSSGWYWAFGGGTEVVVK', 2.13),
  ('P018.S.12.A.B01 (antibody, V domains shown, V regions on human Ig constant parts; also called AB134_56) VH: QEQLVESGGGLVQPEGSLTLTCKASGFDFSYNSMCWVRQAPGKGLEWITCIYNGDGSTWYASWAKGRFTISKTSSTTVTLQMTSLTAADTATYFCTRDFGLWGPGTLVTVSS VL: ALVMTQTPSSTSEPVGGTVTINCQASESVANHKQLSWYQQKPGQPPKVLIYYASTLASGVPSRFKGSGSGTQFTLTISDVVSDDAATYYCSGYKSISTDGNAFGGGTEVVVK', 2.34),
  ('P018.S.04.A.E01 (antibody, V domains shown, V regions on human Ig constant parts; also called AB134_10) VH: QSVEESGGRLVTPGTPLTLTCTASGFSLSSSWMSWVRQAPGKGLEFIGFINTGGRAFYATWASGRFTISRTSTKVDLEITSPTSEDTATYFCVRGAAGYPEYDDGDLWGQGTLVTVSS VL: AQVLTQTLSPVSAAVGGTVTINCQSSPSVYHNNWLSWFQKKPGQPPKLLIYEASKLASGVPPRFSGSGSGTQFTLTISGVQSDDAATYYCAGSFSDNIYTFGGGTAMVVK', 2.88),
  ('P018.S.11.A.G04 (antibody, V domains shown, V regions on human Ig constant parts; also called AB134_44) VH: QSVEESGGRLVTPGTPLTLTCTASGFDLSSYYMSWVRQAPGKGLEWIGIIYTDSSASYASWAKGRFTISRTSTTVDLKMTSPTTEDTATYFCARGLVVSTDNYNLWGPGTLVTVSS VL: AAVLTQTPSPVSVAVGGTVTINCQASQSIYNNNYLAWFQQKPGQPPKLLIYYTSTLASGVPSRFKGSGSGTQFTLTINGVQSDDAATYYCLGDVGGGMRVFGGGTEVVVK', 2.13);

Now let's try a different one.
Challenge: # ELISA [abs. corr.] lookup, item P018.S.11.A.F03 (antibody, V domains shown, V regions on human Ig constant parts; also called AB134_39) VH: QEQLVESGGGLVQPEGSLTLTCKASGFDFNNNAMCWVRQAPGKGLEWIACIYDGSSGSTYYASWAKGRFTISKTSSSTVTLQMTSLTAADTATYFCARAYAAYTVYDYAFNLWGPGTLVTVSS VL: DVVMTQTPASVSEPVGGTVTIKCQASQSIGSDLAWYQQKPGQPPKLLIYYTTNLETGVSSRFKGSGSGTQFTLTISDLESADAATYYCQYADRSSYSFGGGTEVVVK
Response given: 1.85

Where do these numbers come from? They come from patent US20210253725A1.
